target: T1, polyhistidine-tagged human PD-1 (hPD1-His, 98AFK) (human, UniProt Q15116 25-167, limits assumed); experiment: SPR solution affinity; reference Humanized 08A IgG4 S61N (98AIO)
T1 construct: also called human PD1-His; Human PD-1-His
T1 sequence (Q15116 25-167 limits assumed): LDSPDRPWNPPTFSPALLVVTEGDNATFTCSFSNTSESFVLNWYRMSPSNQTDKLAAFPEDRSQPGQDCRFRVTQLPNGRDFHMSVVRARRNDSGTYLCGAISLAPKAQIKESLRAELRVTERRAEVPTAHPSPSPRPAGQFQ
Measurement type: KD (REF)/KD
Please give only the number in your answer, with no unit.

Input line: Could you share which KD (REF)/KD value was measured for Humanized 08A IgG4 G56A (antibody, V domains shown, IgG4 S228P / kappa; also called 89AVZ; Humanized x [PD-1_H] mAb (08A/HuPD1A-11 G56A) IgG4 S228P / Kappa) VH: EVQLVQSGAEVKKPGASVKVSCKASGYTFTSYYLYWVRQAPGQGLEWIGGVNPSNAGTNFSEKFKSRVTLTVDTSISTAYMELSRLRSDDTAVYYCTRRDSNYDGGFDYWGQGTTVTVSS VL: DIVMTQTPLSLSVTPGQPASISCRASKSVSTSGFSYLHWYLQKPGQPPQLLIFLASNLESGVPDRFSGSGSGTDFTLKISRVEAEDVGVYYCQHSWELPLTFGQGTKLEIKR ?
Output line: 0.6

Cited source for all entries: patent US20220251194A1
